Entries and their SH2 binding enrichment values follow.
molecular target: SHP2-C SH2; assay: SH2 binding enrichment of the phosphorylated peptide, bacterial display (enrichment ratio); higher = better substrate or ligand; peptides without Tyr show the background;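 further: peptide library displayed on the E. coli surface as eCPX fusions, selected cells deep-sequenced, score is each peptide's frequency after selection divided by its frequency in the input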
Simply state the number, no unit and no words.

Input sequence: RLLVVYPWNQR [HBB_Y36_T39N]
Reading: 1.84

Input sequence: VATRWYQSPEL [CDKL5_Y177_R178Q]
Reading: 0.955

Input sequence: PLDGEYFTLRI [TP53_Y327_Q331R]
Reading: 0.539

Input sequence: RSSGGYEPRGR [FUS_Y239]
Reading: 0.521

Input sequence: EIHTQYEAMAS [GFAP_Y242_R239H]
Reading: 0.487

Input sequence: PSQRRYLFFFS [PTEN_Y174_V175L_YF]
Reading: 1.15

# next sequence below
[ask] Endpoint output: SH2 binding enrichment of CTTIHYNYRCN [TP53_Y234_M237R] . Value?
[reply] 1.39
